Target: mGlyT-1b (Mus musculus, UniProt P28571)
Construct: host or cells: Flp-in-CHO
Sequence (P28571 1-651 isoform P28571-2): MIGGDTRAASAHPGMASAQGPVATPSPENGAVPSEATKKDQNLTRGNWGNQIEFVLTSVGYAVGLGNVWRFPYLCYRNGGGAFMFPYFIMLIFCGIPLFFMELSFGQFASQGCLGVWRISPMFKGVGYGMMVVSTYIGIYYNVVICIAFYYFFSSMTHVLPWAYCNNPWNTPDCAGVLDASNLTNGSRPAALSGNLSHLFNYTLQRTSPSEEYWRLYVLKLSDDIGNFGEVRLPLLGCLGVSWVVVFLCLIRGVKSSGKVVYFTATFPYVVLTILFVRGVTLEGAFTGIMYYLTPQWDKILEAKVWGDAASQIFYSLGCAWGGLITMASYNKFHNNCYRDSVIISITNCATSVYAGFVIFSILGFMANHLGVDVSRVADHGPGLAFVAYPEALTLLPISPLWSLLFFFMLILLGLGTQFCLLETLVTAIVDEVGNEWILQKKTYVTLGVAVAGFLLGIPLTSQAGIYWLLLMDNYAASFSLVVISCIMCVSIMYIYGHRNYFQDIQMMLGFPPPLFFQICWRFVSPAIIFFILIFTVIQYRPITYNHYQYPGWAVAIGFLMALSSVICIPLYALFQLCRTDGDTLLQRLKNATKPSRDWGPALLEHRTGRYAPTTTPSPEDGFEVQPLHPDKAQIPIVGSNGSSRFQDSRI
Test: Glycine Uptake Inhibition Assay (mGlyT-1b)
Format: cell-based
Measurement setup: IC50 data
pIC50: −log10 of the molar value.

Compound | pIC50
O=C(NC1CCCC1N1CCCC1)c1c(Cl)cc(C(F)(F)F)cc1Cl (single isomer, unassigned; (+)) [Example 128] | 7.16
O=C(NC1CCCC1N1CCCC1)c1ccc(C(F)(F)F)cc1C1CC1 (single isomer, unassigned; (+)) [Example 97] | 7.08
O=C(NC1CCCC1N1CCCC1)c1c(Cl)cc(C(F)(F)F)cc1Cl (single isomer, unassigned; (-)) [Example 129] | 7.19
O=C(N[C@H]1CCC[C@H]1N1CCCC1)c1ccc(C(F)(F)F)cc1C(F)(F)F (single isomer, unassigned) [Example 78] | 7.12
COc1cc(C(F)(F)F)cc(SC)c1C(=O)N[C@@H]1CCC[C@@H]1N1CCCC1 (single isomer, unassigned) [Example 58] | 7.56
CCc1cc(C(F)(F)F)cc(C(F)(F)F)c1C(=O)N[C@H]1CCC[C@H]1N1CCCC1 (single isomer, unassigned) [Example 141] | 7.36
